Ref: patent US20250215013A1

tested.on: recombinant poly(ADP-ribose) polymerase 2 (PARP2)
assay.remarks: PARP2 chemiluminescent assay
Type: biochemical
condition.info: inhibition of PARP2 enzyme activity, chemiluminescence
Give measured IC50 for each item. Keep answers brief.
Just the number please, in nM, no unit attached.

Lookup: What value of measured IC50 is listed for `CCNC(=O)c1ccc(N2CCN(Cc3ccc4c([nH]c(=O)c5c(F)cnn54)c3F)CC2)c(F)n1` ?
Found: 431

Lookup: What value of measured IC50 is listed for `CNC(=O)c1ccc(N2CCN(Cc3ccc4c([nH]c(=O)c5ccoc54)c3F)CC2)c(C)n1` ?
Found: 5580

Lookup: What value of measured IC50 is listed for `CNC(=O)c1ccc(N2CCN(Cc3cc4[nH]c(=O)c5occc5c4cc3C)CC2)c(F)n1` ?
Found: 487

Lookup: What value of measured IC50 is listed for `CNC(=O)c1ccc(N2CCN(Cc3cc(F)c4c(c3)[nH]c(=O)n3cc(C)nc43)CC2)c(C)n1` ?
Found: 931

Lookup: What value of measured IC50 is listed for `CNC(=O)c1ccc(N2CCN(Cc3ccc4c([nH]c(=O)c5occc54)c3F)CC2)c(Cl)n1` ?
Found: 1870

Lookup: What value of measured IC50 is listed for `CNC(=O)c1ccc(N2CCN(Cc3ccc4c(c3)[nH]c(=O)c3ncn(C)c34)CC2)c(C)n1` ?
Found: 2420

Lookup: What value of measured IC50 is listed for `CNC(=O)c1ccc(N2CCN(Cc3ccc4c(c3)[nH]c(=O)c3cn(C)cc34)CC2)c(C)n1` ?
Found: 584

Lookup: What value of measured IC50 is listed for `CNC(=O)c1ccc(N2CCN(Cc3ccc4c([nH]c(=O)c5cnn(C)c54)c3F)CC2)c(F)n1` ?
Found: 199

* * *

Test system: MDA-MB-436 cells
assay.remarks: Growth inhibition assay against BRCA mutant human breast cancer MDA-MB-436 cell line (CCK-8)
Format: cell-based
condition.info: Homo sapiens, MDA-MB-436, […], proliferation of MDA-MB-436 cells, 7 days
Give measured log10 of IC50 for each item. Keep answers brief.
Heads up: the numbers are on a log10 scale; they represent IC50 in nM.

Lookup: What value of measured log10 of IC50 is listed for `CNC(=O)c1ccc(N2CCN(Cc3ccc4c([nH]c(=O)c5c(F)cnn54)c3F)CC2)c(C)n1` ?
Found: 0.24

Lookup: What value of measured log10 of IC50 is listed for `CNC(=O)c1ccc(N2CCN(Cc3cc4[nH]c(=O)c5c(F)cnn5c4cc3F)CC2)c(F)n1` ?
Found: 0.15

Lookup: What value of measured log10 of IC50 is listed for `CNC(=O)c1ccc(N2CCN(Cc3ccc4c([nH]c(=O)c5c(F)cnn54)c3Cl)CC2)c(C)n1` ?
Found: 1.60

Lookup: What value of measured log10 of IC50 is listed for `CNC(=O)c1ccc(N2CCN(Cc3ccc4c([nH]c(=O)c5cocc54)c3F)CC2)c(F)n1` ?
Found: 0.53

Lookup: What value of measured log10 of IC50 is listed for `CNC(=O)c1ccc(N2CCN(Cc3ccc4c([nH]c(=O)c5ccoc54)c3F)CC2)c(F)n1` ?
Found: 0.59

Lookup: What value of measured log10 of IC50 is listed for `CNC(=O)c1ccc(N2CCN(Cc3ccc4c([nH]c(=O)c5c(C)noc54)c3F)CC2)c(F)n1` ?
Found: 1.56

Lookup: What value of measured log10 of IC50 is listed for `CNC(=O)c1ccc(N2CCN(Cc3ccc4c(c3)[nH]c(=O)c3cocc34)CC2)c(F)n1` ?
Found: 0.54

Lookup: What value of measured log10 of IC50 is listed for `CNC(=O)c1ccc(N2CCN(Cc3ccc4c([nH]c(=O)c5c(C)cnn54)c3C)CC2)c(Cl)n1` ?
Found: 1.37

Lookup: What value of measured log10 of IC50 is listed for `CCNC(=O)c1ccc(N2CCN(Cc3ccc4c([nH]c(=O)n5ccnc45)c3F)CC2)c(C)n1` ?
Found: 1.73

Lookup: What value of measured log10 of IC50 is listed for `CNC(=O)c1ccc(N2CCN(Cc3cc4[nH]c(=O)c5c(F)cnn5c4cc3F)CC2)c(Cl)n1` ?
Found: 0.38

Lookup: What value of measured log10 of IC50 is listed for `CNC(=O)c1ccc(N2CCN(Cc3ccc4c([nH]c(=O)c5cn(C)nc54)c3F)CC2)c(F)n1` ?
Found: 1.46

Lookup: What value of measured log10 of IC50 is listed for `O=C(NCC(F)F)c1ccc(N2CCN(Cc3ccc4c([nH]c(=O)c5occc54)c3F)CC2)c(F)n1` ?
Found: 0.30

Lookup: What value of measured log10 of IC50 is listed for `CNC(=O)c1ccc(N2CCN(Cc3ccc4c([nH]c(=O)c5c(Cl)cnn54)c3F)CC2)c(F)n1` ?
Found: 0.15

Lookup: What value of measured log10 of IC50 is listed for `CNC(=O)c1ccc(N2CCN(Cc3ccc4c([nH]c(=O)c5c(C)cnn54)c3F)CC2)cn1` ?
Found: 1.37

Lookup: What value of measured log10 of IC50 is listed for `CNC(=O)c1ccc(N2CCN(Cc3ccc4c([nH]c(=O)c5occc54)c3F)CC2)c(Cl)n1` ?
Found: 0.67

Lookup: What value of measured log10 of IC50 is listed for `CNC(=O)c1ccc(N2CCN(Cc3ccc4c(c3)[nH]c(=O)c3c(F)c(C)nn34)CC2)c(C)n1` ?
Found: 0.93

Lookup: What value of measured log10 of IC50 is listed for `CNC(=O)c1ccc(N2CCN(Cc3ccc4c([nH]c(=O)c5c(F)cnn54)c3F)CC2)c(Cl)n1` ?
Found: -0.10

Lookup: What value of measured log10 of IC50 is listed for `CCNC(=O)c1ccc(N2CCN(Cc3ccc4c([nH]c(=O)c5c(F)cnn54)c3F)CC2)c(F)n1` ?
Found: 0.09

Lookup: What value of measured log10 of IC50 is listed for `CNC(=O)c1ccc(N2CCN(Cc3ccc4c([nH]c(=O)c5c(C)cnn54)c3F)CC2)c(C)n1` ?
Found: 1.03

Lookup: What value of measured log10 of IC50 is listed for `CNC(=O)c1ccc(N2CCN(Cc3ccc4c(c3)[nH]c(=O)c3ccoc34)CC2)c(F)n1` ?
Found: 0.12

Lookup: What value of measured log10 of IC50 is listed for `CNC(=O)c1ccc(N2CCN(Cc3ccc4c([nH]c(=O)c5c(Cl)cnn54)c3F)CC2)c(C)n1` ?
Found: 0.33

* * *

tested.on: recombinant poly(ADP-ribose) polymerase 2 (PARP2)
assay.remarks: PARP2 chemiluminescent assay
Format: biochemical
condition.info: inhibition of PARP2 enzyme activity, chemiluminescence
Give measured IC50 for each item. Keep answers brief.

Lookup: Field: IC50 (recombinant poly(ADP-ribose) polymerase 2 (PARP2)). Entry: `CNC(=O)c1ccc(N2CCN(Cc3ccc4c([nH]c(=O)n5c(C)cnc45)c3F)CC2)c(F)n1`
Found: 1890 nM

Lookup: Field: IC50 (recombinant poly(ADP-ribose) polymerase 2 (PARP2)). Entry: `CNC(=O)c1ccc(N2CCN(Cc3ccc4c([nH]c(=O)c5cc(C)nn54)c3F)CC2)c(Cl)n1`
Found: 1210 nM

Lookup: Field: IC50 (recombinant poly(ADP-ribose) polymerase 2 (PARP2)). Entry: `CNC(=O)c1ccc(N2CCN(Cc3ccc4c(c3)[nH]c(=O)c3c(C)noc34)CC2)c(C)n1`
Found: 504 nM

Lookup: Field: IC50 (recombinant poly(ADP-ribose) polymerase 2 (PARP2)). Entry: `CNC(=O)c1ccc(N2CCN(Cc3ccc4c([nH]c(=O)c5cn[nH]c54)c3F)CC2)c(F)n1`
Found: 194 nM

Lookup: Field: IC50 (recombinant poly(ADP-ribose) polymerase 2 (PARP2)). Entry: `CCNC(=O)c1ccc(N2CCN(Cc3ccc4c([nH]c(=O)n5ccnc45)c3F)CC2)c(C)n1`
Found: > 10000 nM

Lookup: Field: IC50 (recombinant poly(ADP-ribose) polymerase 2 (PARP2)). Entry: `CNC(=O)c1ccc(N2CCN(Cc3ccc4c(c3)[nH]c(=O)c3c[nH]cc34)CC2)c(C)n1`
Found: 709 nM

Lookup: Field: IC50 (recombinant poly(ADP-ribose) polymerase 2 (PARP2)). Entry: `CNC(=O)c1ccc(N2CCN(Cc3ccc4c(c3)[nH]c(=O)c3[nH]ccc34)CC2)c(C)n1`
Found: > 10000 nM

Lookup: Field: IC50 (recombinant poly(ADP-ribose) polymerase 2 (PARP2)). Entry: `CNC(=O)c1ccc(N2CCN(Cc3cc4[nH]c(=O)c5occc5c4cc3F)CC2)c(F)n1`
Found: 1330 nM

Lookup: Field: IC50 (recombinant poly(ADP-ribose) polymerase 2 (PARP2)). Entry: `CNC(=O)c1ccc(N2CCN(Cc3ccc4c([nH]c(=O)c5c(C)cnn54)c3F)CC2)c(F)n1`
Found: > 10000 nM
